test system: kochia (Kochia scoparia); assay: Test A preemergence, kochia; assay type: in vivo; settings: 500 g ai/ha, 0 to 100 scale, 0 is no effect, 100 is complete control
MEASURED ATTRIBUTE: Kochia plant response rating

Look over these answered cases.
INSERT INTO results (compound, system_under_test, recorded_value) VALUES
  ('C[C@@H](Nc1ncc(C#N)c(N)n1)c1cc2ccccc2s1 [Compound 104]', 'kochia (Kochia scoparia)', 90),
  ('CCC(Nc1ncc(C(F)(F)F)c(N)n1)c1coc2ccccc12 (racemic) [Compound 53]', 'kochia (Kochia scoparia)', 90);

The following compounds each have a reported value; give each one's Kochia plant response rating.
1. CC[C@@H](Nc1ncc(C(F)(F)F)c(N)n1)c1coc2ccccc12 [Compound 80]
2. Nc1nc(N[C@@H](c2coc3ccccc23)C2CC2)ncc1C(F)(F)F [Compound 79]

Ans:
1. 100
2. 0

====

system: kochia (Kochia scoparia); assay: Test A preemergence, kochia; format: in vivo; conditions: 500 g ai/ha, 0 to 100 scale
Binarize Plant response rating, Kochia at 50; below is 1 (yes), at or above is 0 (no).

Q: Plant response rating, Kochia strictly < 50 for this molecule? Cc1cc(F)cc(OCC(C)Nc2ncc(C(F)(F)F)c(N)n2)c1 (centres unmarked)
Ans: 0 (no)

Q: Plant response rating, Kochia strictly < 50 for this molecule? CC(CCc1ccccc1)Nc1ncc(C(F)(F)F)c(N)n1 (centres unmarked)
Ans: 1 (yes)

Q: Plant response rating, Kochia strictly < 50 for this molecule? "Cc1ccc2cc([C@@H](C)Nc3ncc(C(F)(F)F)c(N)n3)oc2c1"
Ans: 0 (no)

Q: Plant response rating, Kochia strictly < 50 for this molecule? Cc1cccc(OCC(C)Nc2ncc(C(F)(F)F)c(N)n2)c1 (centres unmarked)
Ans: 1 (yes)

====

tested on: ragweed (common ragweed, Ambrosia elatior); assay: Test A preemergence, ragweed; assay type: in vivo; conditions: 125 g ai/ha, 0 to 100 scale, 0 is no effect, 100 is complete control
Could you please report measured Ragweed plant response rating for the items listed next?
Numbers only.

Look over these answered cases.
INSERT INTO results (compound, system_under_test, recorded_value) VALUES
  ('CC[C@@H](Nc1ncc(C(F)(F)F)c(N)n1)c1cc2ccc(F)cc2s1 [Compound 48]', 'ragweed (common ragweed, Ambrosia elatior)', 30),
  ('Nc1nc(NC(c2cc3ccccc3o2)C2CC2)ncc1C(F)(F)F (centres unmarked) [Compound 88]', 'ragweed (common ragweed, Ambrosia elatior)', 80),
  ('C[C@@H](Nc1ncc(C(F)(F)F)c(N)n1)c1cc2c(F)cccc2s1 [Compound 61]', 'ragweed (common ragweed, Ambrosia elatior)', 90);

The following compounds each have a reported value; give each one's Ragweed plant response rating.
1. Nc1nc(N[C@@H](c2cc3ccccc3s2)C2CC2)ncc1C(F)(F)F [Compound 84]
2. CC(F)c1nc(N[C@H](C)c2cc3ccccc3s2)nc(N)c1C(F)(F)F (some centres unmarked) [Compound 108]
3. CC(=O)c1cnc(NC(C)c2cc3ccccc3s2)nc1N (centres unmarked) [Compound 57]
4. C[C@H](Nc1ncc(C(F)(F)F)c(N)n1)c1cc2cccc(F)c2o1 [Compound 72]
5. CC(Nc1ncc(C(F)(F)F)c(N)n1)c1cc2c(Cl)cccc2o1 (centres unmarked) [Compound 100]

Ans:
1. 100
2. 70
3. 60
4. 0
5. 50

====

system: kochia (Kochia scoparia); assay: Test A preemergence, kochia; assay type: in vivo; conditions: 500 g ai/ha, 0 to 100 scale, 0 is no effect, 100 is complete control
MEASURED ATTRIBUTE: Kochia plant response rating
Answers are plain numbers.

INSERT INTO results (compound, system_under_test, measured_attribute, recorded_value) VALUES
  ('CC[C@@H](Nc1ncc(C(F)(F)F)c(N)n1)c1cc2ccc(F)cc2o1 [Compound 63]', 'kochia (Kochia scoparia)', 'Kochia plant response rating', 100),
  ('Nc1nc(N[C@H](c2coc3ccccc23)C2CC2)ncc1C(F)(F)F [Compound 78]', 'kochia (Kochia scoparia)', 'Kochia plant response rating', 90),
  ('CC[C@H](Nc1ncc(C(F)(F)F)c(N)n1)c1cc2ccc(F)cc2s1 [Compound 49]', 'kochia (Kochia scoparia)', 'Kochia plant response rating', 0),
  ('C[C@H](Nc1nc(N)c(C(F)(F)F)c(C(F)(F)F)n1)c1cc2ccccc2o1 [Compound 66]', 'kochia (Kochia scoparia)', 'Kochia plant response rating', 0),
  ('C[C@H](Nc1nc(N)c(C(F)(F)F)c(C(F)(F)F)n1)C1Cc2ccccc2C1 [Compound 68]', 'kochia (Kochia scoparia)', 'Kochia plant response rating', 0);

The following compounds each have a reported value; give each one's Kochia plant response rating.
1. Cc1ccc2c([C@H](Nc3ncc(C(F)(F)F)c(N)n3)C3CC3)coc2c1 [Compound 90]
2. CC[C@H](Nc1ncc(C(F)(F)F)c(N)n1)c1coc2ccccc12 [Compound 81]
3. C[C@@H](Nc1ncc(C(F)(F)F)c(N)n1)c1cc2c(F)cccc2s1 [Compound 61]
4. C[C@@H](Nc1ncc(C(F)(F)F)c(N)n1)c1coc2ccccc12 [Compound 52]
5. Cc1nc(NC(C)c2cc3ccccc3s2)nc(N)c1C(F)(F)F (stereo not drawn) [Compound 105]
6. Nc1nc(NC(c2cc3ccccc3s2)C2CC2)ncc1C(F)(F)F (racemic) [Compound 94]
7. CC(Nc1ncc(S(C)(=O)=O)c(N)n1)c1cc2ccccc2s1 (stereo not drawn) [Compound 107]

Ans:
90
20
90
100
100
90
100

====

system: ryegrass, Italian (Lolium multiflorum); test: Test A preemergence, Italian ryegrass; assay type: in vivo; conditions: 31 g ai/ha, 0 to 100 scale, 0 is no effect, 100 is complete control
Could you please report measured Ryegrass, Italian plant response rating for the items listed next?
Give bare numbers.

INSERT INTO measurements (molecule, recorded_value) VALUES
  ('Cc1cccc2sc([C@@H](C)Nc3ncc(C(F)(F)F)c(N)n3)cc12', 20),
  ('C[C@@H](Nc1nc(N)c(C(F)(F)F)c(C(F)F)n1)c1cc2ccccc2o1', 0),
  ('C[C@@H](Nc1ncc(C(F)(F)F)c(N)n1)c1cc2ccccc2[s+]1[O-] (stereo partly drawn)', 0),
  ('C[C@@H](Nc1ncc(C(F)(F)F)c(N)n1)c1cc2c(F)ccc(F)c2s1', 30),
  ('C[C@@H](Nc1ncc(C(F)(F)F)c(N)n1)c1cc2c(Cl)cccc2s1', 20);

The following molecules each have a reported value; give each one's Ryegrass, Italian plant response rating.
1. C[C@@H](Nc1ncc([S+](C)[O-])c(N)n1)c1cc2ccccc2s1 (stereo partly drawn)
2. C[C@@H](Nc1nc(N)c(C(F)(F)F)c(C(F)F)n1)c1cc2ccccc2s1

Ans:
1. 0
2. 20

The following molecules each have a reported value; give each one's Ryegrass, Italian plant response rating.
1. CC(F)c1nc(N[C@H](C)c2cc3ccccc3s2)nc(N)c1C(F)(F)F (stereo partly drawn)
2. CC(F)c1nc(N[C@H](C)c2cc3ccccc3o2)nc(N)c1C(F)(F)F (stereo partly drawn)

Ans:
0
0

====

System: pigweed (Amaranthus retroflexus)
Experiment: Test A preemergence, pigweed
Format: in vivo
Conditions: 125 g ai/ha, 0 to 100 scale, 0 is no effect, 100 is complete control
Source text: Seeds of plant species selected from barnyardgrass (Echinochloa crus-galli), kochia (Kochia scoparia), ragweed (common ragweed, Ambrosia elatior), ryegrass, Italian (Lolium multiflorum), foxtail, giant (Setaria faberii), foxtail, green (Setaria viridis), and pigweed (Amaranthus retroflexus) were planted into a blend of loam soil and sand and treated preemergence with a directed soil spray using test chemicals formulated in a non-phytotoxic solvent mixture which included a surfactant. […]
MEASURED ATTRIBUTE: Pigweed plant response rating
Numbers only.

Look over these answered cases.
INSERT INTO measurements (compound, recorded_value) VALUES
  ('Cc1nc(NC(C)c2cc3ccccc3s2)nc(N)c1C(F)(F)F (stereo not drawn) [Compound 105]', 100),
  ('Cc1ccc2c(C(C)Nc3ncc(C(F)(F)F)c(N)n3)coc2c1 (stereo not drawn) [Compound 85]', 100);

The following compounds each have a reported value; give each one's Pigweed plant response rating.
1. Cc1nc(NC(C)c2coc3ccccc23)nc(N)c1C(F)(F)F (stereo not drawn) [Compound 106]
2. CC(COc1cc(F)c(F)c(F)c1)Nc1ncc(C(F)(F)F)c(N)n1 (stereo not drawn) [Compound 36]
3. CC(COc1cc(Cl)cc(Cl)c1)Nc1ncc(C(F)(F)F)c(N)n1 (stereo not drawn) [Compound 35]

Ans:
30
0
0

====

test system: kochia (Kochia scoparia); test: Test A preemergence, kochia; format: in vivo; conditions: 500 g ai/ha, 0 to 100 scale
Binarize Plant response rating, Kochia at 90; below is Condition met, at or above is Condition not met.

Use these answered entries as a reference point.
INSERT INTO results (compound, qualitative_label) VALUES
  ('C[C@@H](Nc1ncc(C(F)(F)F)c(N)n1)c1cc2cc(Cl)ccc2o1', 'Condition met'),
  ('CC(Nc1ncc(C(F)(F)F)c(N)n1)c1cc2ccccc2s1 (racemic)', 'Condition not met'),
  ('CC(Nc1ncc(C#N)c(N)n1)c1cc2ccccc2o1 (racemic)', 'Condition met');

Q: Plant response rating, Kochia strictly < 90 for this compound? Nc1nc(NC(c2cc3ccccc3o2)C2CC2)ncc1C(F)(F)F (racemic)
Ans: Condition met

Q: Plant response rating, Kochia strictly < 90 for this compound? "C[C@H](Nc1ncc(C(F)(F)F)c(N)n1)c1cc2ccccc2s1"
Ans: Condition met

Q: Plant response rating, Kochia strictly < 90 for this compound? "C[C@@H](Nc1ncc(C(F)(F)F)c(N)n1)c1cccc2ccccc12"
Ans: Condition not met

Q: Plant response rating, Kochia strictly < 90 for this compound? "Cc1cc2cc([C@@H](C)Nc3ncc(C(F)(F)F)c(N)n3)oc2cc1C"
Ans: Condition met
